All values here come from patent US20200392198A1.

target-system: T1, human GLP-2 receptor (human, UniProt O95838 1-553)
T1 sequence (looked up): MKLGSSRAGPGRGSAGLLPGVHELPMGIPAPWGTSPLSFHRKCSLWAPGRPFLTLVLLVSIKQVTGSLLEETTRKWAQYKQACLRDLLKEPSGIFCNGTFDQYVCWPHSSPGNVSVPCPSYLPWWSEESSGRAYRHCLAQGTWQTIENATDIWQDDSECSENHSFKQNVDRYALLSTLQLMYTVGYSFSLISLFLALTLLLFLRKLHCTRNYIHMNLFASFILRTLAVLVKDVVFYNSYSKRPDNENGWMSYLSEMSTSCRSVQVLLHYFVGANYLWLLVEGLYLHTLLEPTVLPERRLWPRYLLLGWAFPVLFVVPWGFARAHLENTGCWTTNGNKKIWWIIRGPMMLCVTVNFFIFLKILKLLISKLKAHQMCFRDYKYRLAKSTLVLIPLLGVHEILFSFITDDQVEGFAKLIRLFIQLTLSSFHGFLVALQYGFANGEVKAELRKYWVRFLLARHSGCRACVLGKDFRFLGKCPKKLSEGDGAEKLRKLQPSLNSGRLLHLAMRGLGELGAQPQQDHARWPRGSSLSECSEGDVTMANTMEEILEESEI
assay-text: cell-based or functional assay
endpoint-label: Emax (10 µM), % of native GLP-2
The number alone won't do; follow it with the unit.

# annotated cases, reported Emax (10 µM), % of native GLP-2 shown
| binder | reported-measurement |
| --- | --- |
| HAEGSFISDYSTILDNLAARDFINWLIQTKITD [GIP-GLP-2 co-agonist 4] | 90% |
| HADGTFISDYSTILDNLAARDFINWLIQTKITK [GIP-GLP-2 co-agonist 18] | 94% |
| HGDGTFISDYSTILDNLAARDFINWLIQTKITD [GIP-GLP-2 co-agonist 11] | 87% |
| HADGTFISDYSTILDNLAARDFINWLIQTKGTD [GIP-GLP-2 co-agonist 16] | 74% |
| HAEGTFSDEYSTILDNLAARDFINWLIQTKITD [GIP-GLP-2 co-agonist 5] | 91% |
| HADGTFISEYSTILDNLAARDFINWLIQTKITD [GIP-GLP-2 co-agonist 15] | 104% |

Note Emax (10 µM), % of native GLP-2 for the binder shown: HVDGTFISDYSTILDNLAARDFINWLIQTKITD [GIP-GLP-2 co-agonist 12]
81%

Please supply the value of reported Emax (10 µM), % of native GLP-2 for the item HAEGTFISDYSTILDNLAARDFVNWLLAQKITD [GIP-GLP-2 co-agonist 9]
67%

// fetch Emax (10 µM), % of native GLP-2 given entry HAEGTFISDMNTILDNLAARDFINWLIQTKITD [GIP-GLP-2 co-agonist 6]
70%

For the binder HADGTFISDYSTILDNLAARDFINWLIQTKGKK [GIP-GLP-2 co-agonist 19] , give its measured Emax (10 µM), % of native GLP-2 value.
91%
